Molecular target: T1, recombinant human IL-23R/Fc chimera (R&D Systems) (human, UniProt Q5VWK5 24-355)
T1 construct: Bought; also called rhIL23RFc
T1 sequence (looked up): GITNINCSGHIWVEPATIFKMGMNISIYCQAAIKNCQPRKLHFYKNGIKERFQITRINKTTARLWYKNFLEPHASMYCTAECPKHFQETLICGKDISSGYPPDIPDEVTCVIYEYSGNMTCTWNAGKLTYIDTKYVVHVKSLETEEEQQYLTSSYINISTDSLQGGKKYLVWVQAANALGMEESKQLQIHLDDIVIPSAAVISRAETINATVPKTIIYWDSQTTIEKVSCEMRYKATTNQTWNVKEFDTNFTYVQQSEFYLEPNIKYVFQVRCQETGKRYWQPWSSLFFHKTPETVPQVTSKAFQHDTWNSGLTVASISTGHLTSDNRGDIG
Assay: SPR
Experimental Endpoint: kon
Remember to put the unit after the number in your answer.

// recorded kon for 001-69.4D4 monomeric CTLD (designed binder, C-terminal tag not specified) ALQTVCLKGTKVHMKCFLAFTQTKTFHEASEDCISRGGTLSTPQTGSENDALYEYLRQSVGNEAEIWLGLNGSVRGRTWVDMTGARIAYKNWETEITAQPDGGIGVWGENCAVLSGAANGKWFDKRCRDQLPYICQFGIV : 28300 M⁻¹ s⁻¹

binder 101-80-5E8 ATRIMER complex (designed binder) EPPTQKPKKIVNAKKDVVNTKMFEELKSRLDTLAQEVALLKEQQALQTVCLKGTKVHMKCFLAFTQTKTFHEASEDCISRGGTLSTPQTGSENDALYEYLRQSVGNEAEIWLGLNGSALTNTWVDMTGARIAYKNWEPPEPLHPMGGFGVFGENCAVLSGAANGKWFDKRCRDQLPYICQFGIV , kon observed: 1.13e+06 M⁻¹ s⁻¹

Form field kon, entry 056-41.B5C ATRIMER complex (designed binder, non-covalent homotrimer of the one chain given, not shown: Also the single Ser the vector leaves after the ompA signal) EPPTQKPKKIVNAKKDVVNTKMFEELKSRLDTLAQEVALLKEQQALQTVCLKGTKVHMKCFLAFTQTKTFHEASEDCISRGGTLSTPQTGSENDALYEYLRQSVGNEAEIWLGLNGSALTNTWVDMTGARIAYKNWETEITAQPDGGFGYFGENCAVLSGAANGKWFDKRCRDQLPYICQFGIV : 307000 M⁻¹ s⁻¹
